Test: Time-survival response, trypan blue viability
Assay type: cell-based
Conditions: rat, hepatocytes; 6 hours; 10^-6 M
OBSERVABLE: viability at 6 h, 1 µM

Request: Kindly indicate its recorded viability at 6 h, 1 µM. Item: COc1cccc2c1C(=O)c1c(O)c3c(c(O)c1C2=O)C[C@@](O)(C(=O)CO)C[C@@H]3O[C@H]1C[C@H](N)[C@H](O)[C@H](C)O1 [Free doxorubicin, doxorubicin]
Result: 91%

###

Assay: Time-survival response, trypan blue viability
Assay type: cell-based
Conditions: rat, hepatocytes; 8 hours; 10^-6 M
OBSERVABLE: viability at 8 h, 1 µM (%)
Give the quantity in %, number only.

Request: State its viability at 8 h, 1 µM for this compound: COc1cccc2c1C(=O)c1c(O)c3c(c(O)c1C2=O)C[C@@](O)(C(=O)CO)C[C@@H]3O[C@H]1C[C@H](N)[C@H](O)[C@H](C)O1 [Free doxorubicin, doxorubicin]
Result: 81

###

Experiment: Time-survival response, trypan blue viability
Type: cell-based
Settings: rat, hepatocytes; 18 hours; 10^-6 M
OBSERVABLE: viability at 18 h, 1 µM (%)
// units = %; emit number, no label

Request: Tell us which viability at 18 h, 1 µM value is on record for COc1cccc2c1C(=O)c1c(O)c3c(c(O)c1C2=O)C[C@@](O)(C(=O)CO)C[C@@H]3O[C@H]1C[C@H](N)[C@H](O)[C@H](C)O1 [Free doxorubicin, doxorubicin]
Result: 59
